- System: Escherichia coli TOP10;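 note: peptides expressed intracellularly from a pBAD plasmid library in pooled LB shake-flask culture, induced with 0.3% L-arabinose, DNA abundance read by NGS, three biological replicates, DESeq2 with apeglm shrinkage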
- experiment: shrunken log2 fold change of peptide-encoding DNA abundance (4.5 h post-induction vs induction); higher = less antimicrobial activity (less host growth inhibition)
- assay_setup: time post-induction: 4.5 h; library: site-saturation at positions 5, 18, 19, 20

{"construct_sequence": "RRIRIRPPRLPRPRPRPQPYPRP", "shrunken log2 fold change": -0.84}
{"construct_sequence": "RRIRCRPPRLPRPRPRPRNFPRP", "shrunken log2 fold change": -0.0465}
{"construct_sequence": "RRIRCRPPRLPRPRPRPEMQPRP", "shrunken log2 fold change": 0.526}
{"construct_sequence": "RRIRTRPPRLPRPRPRPYEHPRP", "shrunken log2 fold change": -0.0707}
{"construct_sequence": "RRIRFRPPRLPRPRPRPQNTPRP", "shrunken log2 fold change": -0.512}
{"construct_sequence": "RRIRHRPPRLPRPRPRPDVFPRP", "shrunken log2 fold change": -0.37}
{"construct_sequence": "RRIRNRPPRLPRPRPRPKQTPRP", "shrunken log2 fold change": 0.317}
{"construct_sequence": "RRIRNRPPRLPRPRPRPAASPRP", "shrunken log2 fold change": 0.739}
{"construct_sequence": "RRIRERPPRLPRPRPRPISGPRP", "shrunken log2 fold change": -0.564}
{"construct_sequence": "RRIRWRPPRLPRPRPRPEGYPRP", "shrunken log2 fold change": 0.607}
{"construct_sequence": "RRIRQRPPRLPRPRPRPIASPRP", "shrunken log2 fold change": -0.0483}
{"construct_sequence": "RRIRIRPPRLPRPRPRPESPPRP", "shrunken log2 fold change": -0.135}
{"construct_sequence": "RRIRWRPPRLPRPRPRPAIMPRP", "shrunken log2 fold change": -0.211}
{"construct_sequence": "RRIRRRPPRLPRPRPRPVNQPRP", "shrunken log2 fold change": 0.129}
{"construct_sequence": "RRIRIRPPRLPRPRPRPFMRPRP", "shrunken log2 fold change": 0.0516}
{"construct_sequence": "RRIRARPPRLPRPRPRPAWNPRP", "shrunken log2 fold change": -0.132}
{"construct_sequence": "RRIRLRPPRLPRPRPRPCHWPRP", "shrunken log2 fold change": -0.11}
{"construct_sequence": "RRIRMRPPRLPRPRPRPILFPRP", "shrunken log2 fold change": -0.385}
{"construct_sequence": "RRIRNRPPRLPRPRPRPRWAPRP", "shrunken log2 fold change": 0.417}
{"construct_sequence": "RRIRERPPRLPRPRPRPQCNPRP", "shrunken log2 fold change": 0.117}
{"construct_sequence": "RRIRLRPPRLPRPRPRPKSLPRP", "shrunken log2 fold change": -0.467}
{"construct_sequence": "RRIRTRPPRLPRPRPRPPYCPRP", "shrunken log2 fold change": -0.112}
{"construct_sequence": "RRIRIRPPRLPRPRPRPCHRPRP", "shrunken log2 fold change": -0.452}
{"construct_sequence": "RRIRPRPPRLPRPRPRPLKNPRP", "shrunken log2 fold change": 0.186}
{"construct_sequence": "RRIRPRPPRLPRPRPRPILMPRP", "shrunken log2 fold change": -0.112}
{"construct_sequence": "RRIRNRPPRLPRPRPRPMMVPRP", "shrunken log2 fold change": -0.194}
{"construct_sequence": "RRIRTRPPRLPRPRPRPIGKPRP", "shrunken log2 fold change": 0.0128}
{"construct_sequence": "RRIRERPPRLPRPRPRPISMPRP", "shrunken log2 fold change": 2.71}
{"construct_sequence": "RRIRFRPPRLPRPRPRPWKWPRP", "shrunken log2 fold change": -0.0196}
{"construct_sequence": "RRIRPRPPRLPRPRPRPCDMPRP", "shrunken log2 fold change": -0.217}
{"construct_sequence": "RRIRLRPPRLPRPRPRPGLMPRP", "shrunken log2 fold change": -0.0199}
{"construct_sequence": "RRIRFRPPRLPRPRPRPNCTPRP", "shrunken log2 fold change": 0.0099}
{"construct_sequence": "RRIRRRPPRLPRPRPRPVQRPRP", "shrunken log2 fold change": 0.254}
{"construct_sequence": "RRIRNRPPRLPRPRPRPGEAPRP", "shrunken log2 fold change": 0.33}
{"construct_sequence": "RRIRWRPPRLPRPRPRPIPKPRP", "shrunken log2 fold change": 0.102}
{"construct_sequence": "RRIRLRPPRLPRPRPRPVKMPRP", "shrunken log2 fold change": -0.327}
{"construct_sequence": "RRIRERPPRLPRPRPRPCFSPRP", "shrunken log2 fold change": -0.0538}
{"construct_sequence": "RRIRIRPPRLPRPRPRPHFCPRP", "shrunken log2 fold change": -0.139}
{"construct_sequence": "RRIRTRPPRLPRPRPRPDHWPRP", "shrunken log2 fold change": 0.0335}
{"construct_sequence": "RRIRKRPPRLPRPRPRPCIPPRP", "shrunken log2 fold change": -0.0433}
{"construct_sequence": "RRIRARPPRLPRPRPRPKAHPRP", "shrunken log2 fold change": 0.491}
{"construct_sequence": "RRIRDRPPRLPRPRPRPLYSPRP", "shrunken log2 fold change": -0.411}
{"construct_sequence": "RRIRSRPPRLPRPRPRPLWEPRP", "shrunken log2 fold change": -0.0343}
{"construct_sequence": "RRIRSRPPRLPRPRPRPLFIPRP", "shrunken log2 fold change": -0.74}
{"construct_sequence": "RRIRARPPRLPRPRPRPCPTPRP", "shrunken log2 fold change": 0.088}
{"construct_sequence": "RRIRSRPPRLPRPRPRPVLIPRP", "shrunken log2 fold change": -0.000674}
{"construct_sequence": "RRIRCRPPRLPRPRPRPNYWPRP", "shrunken log2 fold change": -0.326}
{"construct_sequence": "RRIRARPPRLPRPRPRPYKKPRP", "shrunken log2 fold change": -0.0244}
{"construct_sequence": "RRIRVRPPRLPRPRPRPKAVPRP", "shrunken log2 fold change": 0.0112}
{"construct_sequence": "RRIRNRPPRLPRPRPRPNGEPRP", "shrunken log2 fold change": 0.0257}
{"construct_sequence": "RRIRLRPPRLPRPRPRPCFMPRP", "shrunken log2 fold change": -0.311}
{"construct_sequence": "RRIRMRPPRLPRPRPRPRSGPRP", "shrunken log2 fold change": 0.815}
{"construct_sequence": "RRIRQRPPRLPRPRPRPQLMPRP", "shrunken log2 fold change": -0.166}
{"construct_sequence": "RRIRHRPPRLPRPRPRPMYEPRP", "shrunken log2 fold change": -0.0116}
{"construct_sequence": "RRIRQRPPRLPRPRPRPYYYPRP", "shrunken log2 fold change": -1.18}
{"construct_sequence": "RRIRFRPPRLPRPRPRPRLTPRP", "shrunken log2 fold change": -0.212}
{"construct_sequence": "RRIRYRPPRLPRPRPRPGDWPRP", "shrunken log2 fold change": 0.337}
{"construct_sequence": "RRIRNRPPRLPRPRPRPNMQPRP", "shrunken log2 fold change": -0.184}
{"construct_sequence": "RRIRNRPPRLPRPRPRPTSTPRP", "shrunken log2 fold change": -0.7}
{"construct_sequence": "RRIRVRPPRLPRPRPRPKYGPRP", "shrunken log2 fold change": -0.141}
{"construct_sequence": "RRIRKRPPRLPRPRPRPVKQPRP", "shrunken log2 fold change": 0.0206}
{"construct_sequence": "RRIRDRPPRLPRPRPRPTSFPRP", "shrunken log2 fold change": -0.0323}
{"construct_sequence": "RRIRDRPPRLPRPRPRPAHKPRP", "shrunken log2 fold change": -0.0546}
